- Tested on: HL-60
- Experiment description: Antiproliferative activity against human HL60 cells assessed as reduction in cell viability incubated for 48 hrs by MTS assay
- Assay type: functional, cell-based
- Assay setup: HL-60, 48 h
Outcome measure: pIC50
// field semantics: pIC50 = negative decimal log of concentration (mol/L)

Previously resolved entries follow.
INSERT INTO results (smiles_text, observed_measurement) VALUES
  ('C[C@@H]1CC[C@@]2(OC1)O[C@H]1C[C@H]3[C@@H]4CC=C5C[C@H](n6c[n+](Cc7ccc8ccccc8c7)c7ccccc76)CC[C@]5(C)[C@H]4CC[C@]3(C)[C@H]1[C@@H]2C', 5.99),
  ('C[C@@H]1CC[C@@]2(OC1)O[C@H]1C[C@H]3[C@@H]4CC=C5C[C@H](n6c[n+](CC(=O)c7ccc8ccccc8c7)c7ccccc76)CC[C@]5(C)[C@H]4CC[C@]3(C)[C@H]1[C@@H]2C', 5.96),
  ('CC(C)CCC[C@@H](C)[C@H]1CC[C@H]2[C@@H]3CC=C4C[C@H](n5cc[n+](CC(=O)c6ccccc6)c5)CC[C@]4(C)[C@H]3CC[C@]12C', 5.16),
  ('COc1ccc(C(=O)C[n+]2ccn([C@H]3C[C@H]4[C@@H]5CC[C@H]([C@H](C)CCCC(C)C)[C@@]5(C)CC[C@@H]4[C@@]4(C)CC[C@@H]5C[C@]534)c2)cc1', 5.82),
  ('COc1ccc(C(=O)C[n+]2ccn([C@@H]3CC[C@@]4(C)C(=CC[C@H]5[C@@H]6CC[C@H]([C@H](C)CCCC(C)C)[C@@]6(C)CC[C@@H]54)C3)c2)cc1', 5.22),
  ('C[C@@H]1CC[C@@]2(OC1)O[C@H]1C[C@H]3[C@@H]4CC=C5C[C@H](n6c[n+](CC(=O)c7cccc(Br)c7)c7ccccc76)CC[C@]5(C)[C@H]4CC[C@]3(C)[C@H]1[C@@H]2C', 5.87),
  ('COc1ccc(C(=O)C[n+]2ccn([C@H]3CC[C@H]4[C@@H]5CC=C6C[C@@H](OC(C)=O)CC[C@]6(C)[C@H]5CC[C@]34C)c2)cc1', 5.66),
  ('Cc1cc2c(cc1C)[n+](Cc1ccccc1Br)cn2[C@@H]1CC[C@@]2(C)C(=CC[C@H]3[C@@H]4CC[C@H]([C@H](C)CCCC(C)C)[C@@]4(C)CC[C@@H]32)C1', 5.16),
  ('CC(C)CCC[C@@H](C)[C@H]1CC[C@H]2[C@@H]3C[C@H](n4cc[n+](CC(=O)c5cccc(Br)c5)c4)[C@]45C[C@H]4CC[C@]5(C)[C@H]3CC[C@]12C', 5.85),
  ('Cc1cc2ncn([C@@H]3CC[C@@]4(C)C(=CC[C@H]5[C@@H]6CC[C@H]([C@H](C)CCCC(C)C)[C@@]6(C)CC[C@@H]54)C3)c2cc1C', 6.74);

Recorded pIC50 for C[C@@H]1CC[C@@]2(OC1)O[C@H]1C[C@H]3[C@@H]4CC=C5C[C@H](n6cc[n+](Cc7ccc8ccccc8c7)c6)CC[C@]5(C)[C@H]4CC[C@]3(C)[C@H]1[C@@H]2C , please?
6.00

Data request, read-out pIC50, for COc1ccc(C(=O)C[n+]2cn([C@@H]3CC[C@@]4(C)C(=CC[C@H]5[C@@H]6CC[C@H]([C@H](C)CCCC(C)C)[C@@]6(C)CC[C@@H]54)C3)c3ccccc32)cc1
5.36

Suppose we examine the compound Cc1cc2c(cc1C)[n+](CC(=O)c1ccc3ccccc3c1)cn2[C@@H]1CC[C@@]2(C)C(=CC[C@H]3[C@@H]4C[C@@H]5O[C@]6(CC[C@@H](C)CO6)[C@@H](C)[C@@H]5[C@@]4(C)CC[C@@H]32)C1 ; what pIC50 value has been reported?
6.35

Value lookup for pIC50; key = C[C@@H]1CC[C@@]2(OC1)O[C@H]1C[C@H]3[C@@H]4C[C@H](n5cc[n+](CC(=O)c6ccc7ccccc7c6)c5)[C@]56C[C@H]5CC[C@]6(C)[C@H]4CC[C@]3(C)[C@H]1[C@@H]2C
5.99

###

Listing of entries alongside the reported pIC50.
- Tested on: HL-60
- Experiment description: Antiproliferative activity against human HL60 cells assessed as reduction in cell viability incubated for 48 hrs by MTS assay
- Assay type: functional, cell-based
- Assay setup: HL-60, 48 h
Lab note — pIC50 values are minus log10 of concentrations in M.

INSERT INTO assay_data (smiles_text, assayed_system, outcome_measure, observed_measurement) VALUES
  ('C[C@@H]1CC[C@@]2(OC1)O[C@H]1C[C@H]3[C@@H]4CC=C5C[C@@H](n6ccnc6)CC[C@]5(C)[C@H]4CC[C@]3(C)[C@H]1[C@@H]2C', 'HL-60', 'pIC50', 5.02);

# query: pIC50 | item CC(=O)O[C@H]1CC[C@@]2(C)C(=CC[C@H]3[C@@H]4CC[C@H](n5cc[n+](Cc6ccccc6Br)c5)[C@@]4(C)CC[C@@H]32)C1 | system: HL-60
5.83

###

Listing of entries alongside the reported IC50.
- System: HL-60
- Experiment description: Antiproliferative activity against human HL60 cells assessed as reduction in cell viability incubated for 48 hrs by MTS assay
- Type: functional, cell-based
- Assay setup: HL-60, 48 h
Reply numerically in µM, unit not repeated.

Example entries begin here.
INSERT INTO results (smiles_text, observed_measurement) VALUES
  ('CC(C)CCC[C@@H](C)[C@H]1CC[C@H]2[C@@H]3CC=C4C[C@H](n5c[n+](Cc6ccccc6Br)c6ccccc65)CC[C@]4(C)[C@H]3CC[C@]12C', 4.47),
  ('C[C@@H]1CC[C@@]2(OC1)O[C@H]1C[C@H]3[C@@H]4C[C@H](n5ccnc5)[C@]56C[C@H]5CC[C@]6(C)[C@H]4CC[C@]3(C)[C@H]1[C@@H]2C', 8.33),
  ('CC(C)CCC[C@@H](C)[C@H]1CC[C@H]2[C@@H]3C[C@H](n4cc[n+](Cc5ccc6ccccc6c5)c4)[C@]45C[C@H]4CC[C@]5(C)[C@H]3CC[C@]12C', 1.64);

Reported IC50, compound Cc1cc2c(cc1C)[n+](CC(=O)c1ccccc1)cn2[C@@H]1CC[C@@]2(C)C(=CC[C@H]3[C@@H]4C[C@@H]5O[C@]6(CC[C@@H](C)CO6)[C@@H](C)[C@@H]5[C@@]4(C)CC[C@@H]32)C1 : ____
0.44

###

IC50 values by entry
- Test system: HL-60
- Experiment description: Antiproliferative activity against human HL60 cells assessed as reduction in cell viability incubated for 48 hrs by MTS assay
- Format: functional, cell-based
- Assay setup: HL-60, 48 h

Name the recorded IC50 for C[C@]12CC[C@H](O)CC1=CC[C@@H]1[C@@H]2CC[C@]2(C)C(=O)CC[C@@H]12 .
> 20 µM

Quick check: IC50 of CC(C)CCC[C@@H](C)[C@H]1CC[C@H]2[C@@H]3CC=C4C[C@H](n5cnc6ccccc65)CC[C@]4(C)[C@H]3CC[C@]12C ?
> 20 µM

Recorded IC50 of C[C@]12CC[C@H]3[C@@H](CC=C4C[C@@H](O)CC[C@@]43C)[C@@H]1CC[C@@H]2n1cc[n+](CC(=O)c2ccc3ccccc3c2)c1 , please.
2 µM

// lookup IC50 for CC(C)CCC[C@@H](C)[C@H]1CC[C@H]2[C@@H]3CC=C4C[C@H](n5ccnc5)CC[C@]4(C)[C@H]3CC[C@]12C
> 20 µM

# query: IC50 of entry C[C@@H]1CC[C@@]2(OC1)O[C@H]1C[C@H]3[C@@H]4CC=C5C[C@@H](n6cc[n+](Cc7ccccc7Br)c6)CC[C@]5(C)[C@H]4CC[C@]3(C)[C@H]1[C@@H]2C
0.92 µM

Reported IC50 for COc1ccc(C(=O)C[n+]2ccn([C@H]3CC[C@@]4(C)C(=CC[C@H]5[C@@H]6CC[C@H]([C@H](C)CCCC(C)C)[C@@]6(C)CC[C@@H]54)C3)c2)cc1 : what is it?
7.97 µM
